Molecular target: Rap guanine nucleotide exchange factor 3 (Homo sapiens)
Assay: Confirmatory qHTS for antagonist of cAMP-regulated guanine nucleotide exchange factor 3 (EPAC1) (AID 1645880); further: nearly all actives have a fitted effect of over 55% in size
Details: EPAC1 Rap1B-BODIPY-GDP exchange, fluorescence
Results filed as inconclusive are left out. Active and inactive are the calls of the source. The call rests on the fitted dose curve; in most records, active means well fitted inhibition curve with a large enough effect; inconclusive means small, poorly fitted or top-dose-only effect; inactive means no such curve, though single readings can be large or run the other way.
Your answer must be one of the following: active, inactive

compound=COc1ccc(-c2csc3nc(C)nc(N4CCCCC4)c23)cc1OC assigned_class=inactive

Query: Lab log entry: CC(C)(C)C1COc2ccccc2N1C(=O)c1ccccc1Cl (stereo not drawn) — outcome as called in the assay?
Response: inactive

Query: Lab log entry: O=C(COc1ccccc1/C=C\c1[nH]c(=O)[nH]c(=O)c1[N+](=O)[O-])Nc1ccccc1 — outcome as called in the assay?
Response: active

Query: Lab log entry: N#C/C(=C(/O)C(Cl)(Cl)Cl)c1nc2ccccc2[nH]1 — outcome as called in the assay?
Response: inactive

Query: Lab log entry: Cc1ccc(-c2noc(-c3nnn(CC(=O)Nc4cc(Cl)ccc4C)c3N)n2)cc1 — outcome as called in the assay?
Response: inactive
